Entries and their measured Affinity ELISA, pH 6.0 follow.
Target Of Assay: T1, human ROR2 (receptor tyrosine kinase-like orphan receptor 2) (human, UniProt Q01974 34-403, limits assumed)
T1 construct: Antigen of the ELISA, SPR and pH titration assays; also called hROR2
T1 sequence (Q01974 34-403 limits assumed): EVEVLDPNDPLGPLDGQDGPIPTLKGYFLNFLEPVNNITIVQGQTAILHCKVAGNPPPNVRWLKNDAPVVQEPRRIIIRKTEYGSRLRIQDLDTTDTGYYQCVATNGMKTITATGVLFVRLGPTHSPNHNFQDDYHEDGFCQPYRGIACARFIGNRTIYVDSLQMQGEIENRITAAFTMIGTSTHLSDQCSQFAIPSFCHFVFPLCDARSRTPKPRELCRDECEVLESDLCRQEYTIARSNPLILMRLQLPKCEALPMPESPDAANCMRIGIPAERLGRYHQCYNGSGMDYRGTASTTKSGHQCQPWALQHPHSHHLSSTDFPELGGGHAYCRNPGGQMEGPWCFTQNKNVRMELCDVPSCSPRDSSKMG
Measurement Notes: affinity ELISA on human ROR2, pH 6.0
Set-up: unit not given here
Value Kind: Affinity ELISA, pH 6.0

1. HC-A097M (antibody, V domains shown, CPE single point mutant of parent VH 48.6-HC-WT) VH: EVQLQQSGPELVKPGASVKISCKTSGYTFTEYTMHWMKQSHRKSLEWIGGINTNNGGTGYNQKFKGKATLTVDKSSSTAYMELRSLTSEDSAVYFCMRGSLYSYGNSYFDYWGQGTLVTVSS VL: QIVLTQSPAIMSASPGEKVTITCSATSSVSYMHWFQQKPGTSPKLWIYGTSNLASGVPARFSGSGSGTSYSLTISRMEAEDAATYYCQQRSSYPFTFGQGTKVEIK ... 1.98
2. HC-T053D (antibody, V domains shown, CPE single point mutant of parent VH 48.6-HC-WT) VH: EVQLQQSGPELVKPGASVKISCKTSGYTFTEYTMHWMKQSHRKSLEWIGGINDNNGGTGYNQKFKGKATLTVDKSSSTAYMELRSLTSEDSAVYFCARGSLYSYGNSYFDYWGQGTLVTVSS VL: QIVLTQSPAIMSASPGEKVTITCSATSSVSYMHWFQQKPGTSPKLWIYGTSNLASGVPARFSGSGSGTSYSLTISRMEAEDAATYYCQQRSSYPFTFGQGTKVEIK ... 1.11
3. HC-G099E (antibody, V domains shown, CPE single point mutant of parent VH 48.6-HC-WT) VH: EVQLQQSGPELVKPGASVKISCKTSGYTFTEYTMHWMKQSHRKSLEWIGGINTNNGGTGYNQKFKGKATLTVDKSSSTAYMELRSLTSEDSAVYFCARESLYSYGNSYFDYWGQGTLVTVSS VL: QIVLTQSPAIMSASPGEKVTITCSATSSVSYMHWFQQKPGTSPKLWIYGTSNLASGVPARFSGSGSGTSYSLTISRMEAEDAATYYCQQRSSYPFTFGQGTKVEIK ... 0.616
